Hello, the source for this data is paper PMC12002112, in case you need it.

biological target: PilF9–65 F63Y H33Q S39R R62Q (Thermus thermophilus, UniProt Q5SLC9, F63Y/H33Q/R62Q/S39R); assay: ITC c‐di‐GMP binding, PilF9–65 F63Y H33Q S39R R62Q; settings: 20 °C, pH 7.5, PilF9–65 F63Y H33Q S39R R62Q
property_measured: pKd
Answers are plain numbers, as −log10 of the molar value.

Memo: Nc1nc2c(ncn2C2OC3COP(=O)(O)OC4C(COP(=O)(O)OC3C2O)OC(n2cnc3c(=O)[nH]c(N)nc32)C4O)c(=O)[nH]1 (stereo not shown) , reported pKd: 4.72

###

biological target: PilF1–889 (full‐length PilF) (Thermus thermophilus, UniProt Q5SLC9)
Sequence (Q5SLC9 whole entry): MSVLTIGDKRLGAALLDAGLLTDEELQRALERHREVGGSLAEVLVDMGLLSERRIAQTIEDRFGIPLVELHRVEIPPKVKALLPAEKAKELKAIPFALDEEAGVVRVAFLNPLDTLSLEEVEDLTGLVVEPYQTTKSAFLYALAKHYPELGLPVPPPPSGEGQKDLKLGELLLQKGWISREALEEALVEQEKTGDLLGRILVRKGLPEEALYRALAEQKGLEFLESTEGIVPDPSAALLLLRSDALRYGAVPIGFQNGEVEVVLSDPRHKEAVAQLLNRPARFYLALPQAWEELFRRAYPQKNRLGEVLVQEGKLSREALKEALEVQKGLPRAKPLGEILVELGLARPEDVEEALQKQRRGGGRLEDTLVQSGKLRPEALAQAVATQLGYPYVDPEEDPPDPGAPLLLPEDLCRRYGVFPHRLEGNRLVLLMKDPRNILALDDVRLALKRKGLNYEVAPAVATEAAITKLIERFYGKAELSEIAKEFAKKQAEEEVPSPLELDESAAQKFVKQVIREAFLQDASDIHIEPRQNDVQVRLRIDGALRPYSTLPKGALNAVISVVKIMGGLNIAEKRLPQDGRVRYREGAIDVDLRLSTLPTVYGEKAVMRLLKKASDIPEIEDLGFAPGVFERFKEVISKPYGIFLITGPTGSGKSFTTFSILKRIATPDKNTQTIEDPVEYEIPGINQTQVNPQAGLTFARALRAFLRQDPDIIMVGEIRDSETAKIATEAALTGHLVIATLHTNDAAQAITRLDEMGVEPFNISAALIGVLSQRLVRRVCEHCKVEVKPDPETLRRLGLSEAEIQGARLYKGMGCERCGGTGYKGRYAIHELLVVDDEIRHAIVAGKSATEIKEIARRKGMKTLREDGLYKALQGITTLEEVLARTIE
property_measured: Kd (nM)
Numbers only, in nM.

Memo: Nc1nc2c(ncn2C2OC3COP(=O)(O)OC4C(COP(=O)(O)OC3C2O)OC(n2cnc3c(=O)[nH]c(N)nc32)C4O)c(=O)[nH]1 (stereo not shown) , reported Kd: 324
